biological target: melanocortin-5 receptor (human, UniProt P33032 1-325); experiment: cell-based or functional assay
Sequence (P33032 whole entry): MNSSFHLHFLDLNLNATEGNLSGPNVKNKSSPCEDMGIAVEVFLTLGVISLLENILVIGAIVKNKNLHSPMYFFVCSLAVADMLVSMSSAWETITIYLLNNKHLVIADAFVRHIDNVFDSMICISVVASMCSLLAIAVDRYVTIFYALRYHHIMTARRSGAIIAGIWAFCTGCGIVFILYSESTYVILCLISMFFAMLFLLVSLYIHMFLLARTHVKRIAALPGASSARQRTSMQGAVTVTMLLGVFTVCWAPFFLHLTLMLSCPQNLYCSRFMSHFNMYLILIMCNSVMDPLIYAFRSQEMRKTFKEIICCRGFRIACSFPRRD
Bridge positions count the residues as written; N and C are the ends. Square brackets hold non-standard residues; d marks the D form. dTle = CC(C)(C)[C@@H](N)C(=O)O; Pen = CC(C)(S)[C@H](N)C(=O)O; hCys = N[C@@H](CCS)C(=O)O
property: cAMP Assay (EC-50) (nM)
Numbers only, in nM.

Known cAMP Assay (EC-50) results, listed for orientation:
binder	display-unit	cAMP Assay (EC-50)
Ac-RC[dA]P[dF]RWC-NH2 (disulfide 2-8; SMILES CC(=O)N[C@@H](CCCNC(=N)N)C(=O)N[C@H]1CSSC[C@@H](C(N)=O)NC(=O)[C@H](Cc2c[nH]c3ccccc23)NC(=O)[C@H](CCCNC(=N)N)NC(=O)[C@@H](Cc2ccccc2)NC(=O)[C@@H]2CCCN2C(=O)[C@@H](C)NC1=O) [Compound 13: Ac-Arg-cyclo[Cys-D-Ala-Pro-D-Phe-Arg-Trp-Cys]-NH2]	nM	707
Ac-R[hCys][dA][dF]RW[Pen]-NH2 (disulfide 2-7; SMILES CC(=O)N[C@@H](CCCNC(=N)N)C(=O)N[C@H]1CCSSC(C)(C)[C@@H](C(N)=O)NC(=O)[C@H](Cc2c[nH]c3ccccc23)NC(=O)[C@H](CCCNC(=N)N)NC(=O)[C@@H](Cc2ccccc2)NC(=O)[C@@H](C)NC1=O) [Compound 17: Ac-Arg-cyclo[hCys-D-Ala-D-Phe-Arg-Trp-Pen]-NH2]	nM	2180
Ac-RC[dL]H[dF]RWC-NH2 (disulfide 2-8) [Compound 1: Ac-Arg-cyclo[Cys-D-Leu-His-D-Phe-Arg-Trp-Cys]-NH2]	nM	91
Ac-RC[dA][His(1-Me)][dF]RWC-NH2 (disulfide 2-8) [Compound 6: Ac-Arg-cyclo[Cys-D-Ala-His(1-Me)-D-Phe-Arg-Trp-Cys]-NH2]	nM	467
Ac-RC[dA]W[dF]RWC-NH2 (disulfide 2-8; SMILES CC(=O)N[C@@H](CCCNC(=N)N)C(=O)N[C@H]1CSSC[C@@H](C(N)=O)NC(=O)[C@H](Cc2c[nH]c3ccccc23)NC(=O)[C@H](CCCNC(=N)N)NC(=O)[C@@H](Cc2ccccc2)NC(=O)[C@H](Cc2c[nH]c3ccccc23)NC(=O)[C@@H](C)NC1=O) [Compound 7: Ac-Arg-cyclo[Cys-D-Ala-Trp-D-Phe-Arg-Trp-Cys]-NH2]	nM	259

For the 4 binders below, give their cAMP Assay (EC-50) values.
1. Ac-RC[dTle]H[dF]RWC-NH2 (disulfide 2-8) [Compound 3: Ac-Arg-cyclo[Cys-D-Tle-His-D-Phe-Arg-Trp-Cys]-NH2]
2. Ac-RC[dA]Q[dF]RWC-NH2 (disulfide 2-8; SMILES CC(=O)N[C@@H](CCCNC(=N)N)C(=O)N[C@H]1CSSC[C@@H](C(N)=O)NC(=O)[C@H](Cc2c[nH]c3ccccc23)NC(=O)[C@H](CCCNC(=N)N)NC(=O)[C@@H](Cc2ccccc2)NC(=O)[C@H](CCC(N)=O)NC(=O)[C@@H](C)NC1=O) [Compound 8: Ac-Arg-cyclo[Cys-D-Ala-Gln-D-Phe-Arg-Trp-Cys]-NH2]
3. Ac-RC[dI]H[dF]RWC-NH2 (disulfide 2-8) [Compound 2: Ac-Arg-cyclo[Cys-D-Ile-His-D-Phe-Arg-Trp-Cys]-NH2]
4. Ac-RC[dV]H[dF]RWC-NH2 (disulfide 2-8) [Compound 4: Ac-Arg-cyclo[Cys-D-Val-His-D-Phe-Arg-Trp-Cys]-NH2]

Response:
1. 672
2. 255
3. 420
4. 782

Where do these numbers come from? They come from patent US20160022764A1.
